measured_on: Cathepsin B (Bos taurus)
pIC50: −log10 of the molar value. Starred links: 1 amine or outer side, 2 acyl side, 3 side chain; linkers in the order of their positions; H or OH if unused. Non-standard residues stand in square brackets, D forms with d. Residues, ends and D or L forms follow the SMILES beside them. *: point of attachment. Ahppa(3S,4S) = O=C(C[C@H](O)[C@H](Cc1ccccc1)N[*:1])[*:2]; Sta = CC(C)C[C@H](N)[C@@H](O)CC(=O)O; Isobutyryl = CC(C)C(=O)*
measurement_name: pIC50

compound	pIC50
CC(C)C[C@H](NC(=O)[C@H](C)NC(=O)C[C@H](O)[C@H](CC(C)C)NC(=O)[C@@H](NC(=O)[C@@H](NC(=O)C(C)C)C(C)C)C(C)C)[C@@H](O)CC(=O)O (Isobutyryl-VV[Sta]A[Sta]-OH)	4.54

I: CC(C)C[C@H](NC(=O)[C@@H](NC(=O)[C@@H](NC(=O)C(C)C)C(C)C)C(C)C)[C@@H](O)CC(=O)N[C@@H](C)C(=O)N[C@@H](Cc1ccccc1)[C@@H](O)CC(=O)O (Isobutyryl-VV[Sta]A-{Ahppa(3S,4S)})
II: CC(=O)N[C@H](C(=O)N[C@H](C(=O)N[C@@H](CC(C)C)[C@@H](O)CC(=O)N[C@@H](C)C(=O)N[C@@H](Cc1ccccc1)[C@@H](O)CC(=O)O)C(C)C)C(C)C (Ac-VV[Sta]A-{Ahppa(3S,4S)})
Challenge: Which record shows the lower pIC50: the first, I , or the second, II ? When you have decided, please share the label of that item.
Response given: I

###

measured_on: Cathepsin B (Bos taurus, UniProt P07688)
pIC50: −log10 of the molar value. Starred links: 1 amine or outer side, 2 acyl side, 3 side chain; linkers in the order of their positions; H or OH if unused. Non-standard residues stand in square brackets, D forms with d. Residues, ends and D or L forms follow the SMILES beside them. *: point of attachment. Ahppa(3S,4S) = O=C(C[C@H](O)[C@H](Cc1ccccc1)N[*:1])[*:2]; Sta = CC(C)C[C@H](N)[C@@H](O)CC(=O)O; Propionyl = CCC(=O)*
measurement_name: pIC50

I: CCC(=O)N[C@H](C(=O)N[C@H](C(=O)N[C@@H](CC(C)C)[C@@H](O)CC(=O)N[C@@H](C)C(=O)N[C@@H](Cc1ccccc1)[C@@H](O)CC(=O)O)C(C)C)C(C)C (Propionyl-VV[Sta]A-{Ahppa(3S,4S)})
II: CCC(=O)N[C@H](C(=O)N[C@H](C(=O)N[C@@H](CC(C)C)[C@@H](O)CC(=O)N[C@@H](C)C(=O)N[C@@H](CC(C)C)[C@@H](O)CC(=O)O)C(C)C)C(C)C (Propionyl-VV[Sta]A[Sta]-OH)
Challenge: Between I and II , whose recorded pIC50 is greater? When you have decided, please share the label of that item.
Response given: II
(II: 5.00, I: 4.60)
